Tested on: UACC-257
Assay Comment: NCI tumour cell line growth inhibition, 48 h
Calls of active or inactive are those of the source. Cut-off read from the data, not from the text of the source: active = GI50 up to about 1.1 µM and inactive = higher.
Measure: GI50

COC(=O)[C@@H]1COC(=O)N1	> 100 µM (inactive)
O=C(CCCn1ccnc1[N+](=O)[O-])NCCn1ccnc1	> 100 µM (inactive)
CN1C(=O)C(O)CC1c1cccc(C(F)(F)F)c1 (configuration not stated)	> 100 µM (inactive)
COc1ccccc1NC(=O)C1=C(C)NC(C)=C(C(=O)Nc2ccccc2OC)C1c1ccc([N+](=O)[O-])cc1	> 100 µM (inactive)

Data request: Field request: GI50 | item: CCC12C=CCN3CCC4(c5cc(C(c6ccc(OC)cc6)C6Cc7ccccc7N6)c(OC)cc5N(C)C4C(O)(C(=O)OC)C1O)C32 (configuration not stated)
Data returned: 20.5 µM (inactive)

Data request: Field request: GI50 | item: COc1cc2cc(C(=O)N3CC(CCl)c4c3cc(O)c3ccccc43)[nH]c2c(OC)c1OC (configuration not stated)
Data returned: < 0.005 µM (active)

Data request: Field request: GI50 | item: CCN1C(=O)c2ccccc2C1(O)c1ccc(Cl)cc1 (configuration not stated)
Data returned: 75.5 µM (inactive)

====

System: OVCAR-5
Assay Comment: NCI tumour cell line growth inhibition, 48 h
Active and inactive are the calls of the source. No stated cut-off is given here; in the data, active = GI50 up to about 1.1 µM and inactive = higher.
The following compounds are listed with their measured GI50 values.

CCOC(=O)c1sc(N/N=C2\NC(=O)/C(=C/c3ccc([N+](=O)[O-])cc3)S2)nc1C	22.6 µM (inactive)
C=C(CN1CC2C[C@](C(=O)OC)(c3cc4ccccc4[nH]3)C1C(OC)C2OC)S(=O)(=O)c1ccccc1 (stereo not given in full)	3.71 µM (inactive)
O=C(N/C(=C\c1ccc2c(c1)OCO2)c1nc2ccccc2[nH]1)c1ccccc1	37.6 µM (inactive)
C=C(Cl)C(Cl)(CBr)CCCC(C)(C)Cl (stereo not given)	18.4 µM (inactive)

Data request: Field request: GI50 | item: COC1=NC(NC2OCC(O)C(O)C2O)=C(NC(C)=O)CN1C (stereo not given)
Data returned: > 100 µM (inactive)

Data request: Field request: GI50 | item: N#CC1=C(N)N(c2ccccc2)C(c2ccccc2)C1(C#N)C#N (stereo not given)
Data returned: 16.1 µM (inactive)

Data request: Field request: GI50 | item: Cc1cc(N(CCC#N)CCC#N)ccc1/C=C\C(=O)Nc1ccccc1
Data returned: 30.3 µM (inactive)

Data request: Field request: GI50 | item: COC(=O)C1(C(=O)OC)Cc2ccc(C)cc2C2=C1C(=O)c1ccccc1C2=O
Data returned: 21 µM (inactive)

Data request: Field request: GI50 | item: O=C(Nc1ccccc1)c1cc(S(=O)(=O)Nc2n[nH]c(=O)n2-c2ccccc2)c(S)cc1Cl
Data returned: > 100 µM (inactive)

Data request: Field request: GI50 | item: Cc1cc(N(CCCCl)CCCCl)ccc1/C=N/c1cccc(Cl)c1
Data returned: 1.2 µM (inactive)

Data request: Field request: GI50 | item: COc1ccc(C2c3cc4c(cc3OC(N3CCOCC3)C2C)OCO4)c(OC)c1 (stereo not given)
Data returned: 19.1 µM (inactive)

Data request: Field request: GI50 | item: O=c1c2ccccc2nc(-c2ccccc2)n1O
Data returned: > 100 µM (inactive)

====

Test system: SK-MEL-2
Assay Comment: NCI tumour cell line growth inhibition, 48 h
The source made the active and inactive calls. No stated cut-off is given here; in the data, active = GI50 up to about 1.1 µM and inactive = higher.
In this exercise, the only acceptable responses are Y for active, N for inactive

O=c1c2c3c(sc2nc(CN2CCNCC2)n1-c1ccccc1)CCCC3	N
COC(=O)C1=CON2C3CC4CC(C3)CC(C4)C12C (configuration not stated)	N
O=C1C(=Cc2ccc(F)cc2)C(=O)c2ccccc21	N

Data request: // param item: CCN1C(=O)c2ccccc2C1(O)c1ccc(Cl)cc1 (configuration not stated) ; yields the recorded call
Data returned: N

Data request: // param item: CC(=O)O[C@@]12CO[C@@H]1C[C@@H](O)[C@@]1(C)C(=O)[C@H](O)C3=C(C)[C@@H](OC(=O)[C@H](O)[C@@H](NC(=O)c4ccccc4)c4ccccc4)C[C@@](O)([C@@H](OC(=O)c4ccccc4)C12)C3(C)C (some centres not stated) ; yields the recorded call
Data returned: Y

Data request: // param item: O=C(/C=C/c1ccc2c(c1)OCO2)c1ccccc(=O)c1O ; yields the recorded call
Data returned: N

Data request: // param item: Cc1c2c(c(C)c3c[n+](C)ccc13)Oc1ccccc1O2 ; yields the recorded call
Data returned: N

Data request: // param item: Cn1c(=O)c2c(nc(N3CCOCC3)n2CCCNCC(O)c2ccc(O)c(O)c2)n(C)c1=O (configuration not stated) ; yields the recorded call
Data returned: N

Data request: // param item: Cc1ccc(C(=O)OC[C@H]2CC[C@@H](n3cc(N(C)C4CCCCC4)c(=O)[nH]c3=O)O2)cc1 ; yields the recorded call
Data returned: N

====

Test system: HOP-92
Assay Comment: NCI tumour cell line growth inhibition, 48 h
Calls of active or inactive are those of the source. No stated cut-off is given here; in the data, active = GI50 up to about 1.1 µM and inactive = higher.
In this exercise, the only acceptable responses are 1 (active), 0 (inactive)

Worked examples follow.
O=C1NC(=O)C(=Cc2c3ccccc3cc3ccccc23)C(=O)N1	0
Cc1cc2occ(S(=O)(=O)NC(=O)Nc3ccc(Cl)cc3)c(=O)c2c(=O)o1	0
C=C1C(OC(=O)/C=C/c2ccccc2)CC(OC(C)=O)C2(C)C1CC1CC(OC(C)=O)C(C)=C(C(OC(C)=O)C2OC(C)=O)C1(C)C (stereo not given)	0

Data request: // param item: CCOC(=O)/C=C(/CN1C(=O)c2ccccc2C1=O)c1ccccc1 ; yields the recorded call
Data returned: 0

Data request: // param item: O=C1/C(=N/O)Cc2c(Br)ccc(Br)c21 ; yields the recorded call
Data returned: 0

Data request: // param item: ClCCC[Si]12OCCN(CCO1)CCO2 ; yields the recorded call
Data returned: 0

Data request: // param item: COc1cc(OC)c(/C=C\c2ccnc3ccccc23)c(OC)c1 ; yields the recorded call
Data returned: 0

Data request: // param item: CCOC(=O)c1c2ccc(/C=C/c3ccccc3)ccc-2c(C(=O)OCC)c1N ; yields the recorded call
Data returned: 0

Data request: // param item: COc1cc(C2c3cc4c(cc3[C@@H](NCCN(C)C)C3COC(=O)[C@H]23)OCO4)cc(OC)c1O (stereo not given in full) ; yields the recorded call
Data returned: 1

====

The following compounds are listed with their measured GI50 values.
Test system: SNB-75
Assay Comment: NCI tumour cell line growth inhibition, 48 h
Active and inactive are the calls of the source. No stated cut-off is given here; in the data, active = GI50 up to about 1.1 µM and inactive = higher.

Cc1cc(N(CCCCl)CCCCl)ccc1/C=N/c1cccc(Cl)c1	12.1 µM (inactive)
C/C(=N\NS(=O)(=O)c1ccccc1)c1ccc[n+]([O-])n1	47.6 µM (inactive)
N#Cc1nc(Nc2ccc(Cl)cc2)sc1N	28.8 µM (inactive)
N#CC1=C(N)N(c2ccccc2)C(c2ccccc2)C1(C#N)C#N (stereo unspecified)	15.3 µM (inactive)
O=C1C[C@@H]2[C@@H](C=CC23CC3)N1O	> 100 µM (inactive)

Data request: Request: GI50, test system SNB-75, entry C[N+](C)(C)C1CC([N+](C)(C)C)C2c3ccccc3C21 (stereo unspecified)
Data returned: > 100 µM (inactive)

====

System: ACHN
Assay Comment: NCI tumour cell line growth inhibition, 48 h
Activity calls are given as the source filed them. No stated cut-off is given here; in the data, active = GI50 up to about 1.1 µM and inactive = higher.
In this exercise, the only acceptable responses are active, inactive

Cn1cnc([N+](=O)[O-])c1Sc1nnnn1C	inactive
[N-]=[N+]=NC1C(O)C(CO)OC1n1ccc(N)nc1=O (stereo not drawn)	inactive
C=C1CC(C)(COc2ccc3c(C)cc(=O)oc3c2)OC1=O (stereo not drawn)	inactive
C/C(=N\NS(=O)(=O)c1ccccc1)c1ccc[n+]([O-])n1	inactive
O=c1[nH]c(=O)n(C2CC(O)C(CO)O2)cc1OCc1ccccc1 (stereo not drawn)	inactive
O=C(CC(=O)N1N=C(c2ccccc2)C(/N=N/c2ccc(S(=O)(=O)CCOS(=O)(=O)O)cc2)C1=O)Nc1ccc(Cl)cc1 (stereo not drawn)	inactive
COC(=O)CCC1=NCC(C)(C)O1	inactive
Cn1c(N/N=C/c2ccccc2)nc(-c2ccc3c(c2)OCO3)c(C#N)c1=O	inactive

Proceed to the following item.
Data request: // param item: CN(CCN(C)C(=O)CCn1cc(F)c(=O)[nH]c1=O)C(=O)CCn1cc(F)c(=O)[nH]c1=O ; yields the recorded call
Data returned: inactive

====

System: UO-31
Assay Comment: NCI tumour cell line growth inhibition, 48 h
The source made the active and inactive calls. No stated cut-off is given here; in the data, active = GI50 up to about 1.1 µM and inactive = higher.
The following compounds are listed with their measured GI50 values.

These recorded examples may help you get a feel for the data.
Cc1cc(-c2nc3ccc(F)cc3s2)ccc1N	> 100 µM (inactive)
N#Cc1ccc(Sc2nc3ccccc3[nH]2)cc1	> 100 µM (inactive)
CN(C)Cc1cc(C(=O)/C=C/c2ccc([N+](=O)[O-])cc2)cc(CN(C)C)c1O	16.1 µM (inactive)
Cc1c2ncccc2c(C)c2c1[nH]c1ccc(O)cc12	3.35 µM (inactive)
Cc1ccc([N+](=O)[O-])cc1S(=O)(=O)Nc1ccc(C2=NN(C(=O)c3ccccc3)C(c3ccccc3O)C2)cc1 (stereo unspecified)	16.6 µM (inactive)

Data request: Field request: GI50 | item: Cc1cc(=O)oc2c(CNC(C(=O)O)C(C)O)c(O)ccc12 (stereo unspecified)
Data returned: > 100 µM (inactive)

Data request: Field request: GI50 | item: N#CC1=C(N)N(c2ccccc2)C(c2ccccc2)C1(C#N)C#N (stereo unspecified)
Data returned: 18.1 µM (inactive)

Data request: Field request: GI50 | item: COC(=O)C1CC(=O)CCC1c1ccccc1 (stereo unspecified)
Data returned: > 100 µM (inactive)

Data request: Field request: GI50 | item: O=C1C(=Cc2ccc(F)cc2)C(=O)c2ccccc21
Data returned: > 100 µM (inactive)

Data request: Field request: GI50 | item: O=C(O)C(CCc1ccccc1)N1C(=O)c2ccccc2C1=O (stereo unspecified)
Data returned: > 100 µM (inactive)

Data request: Field request: GI50 | item: CCCCC(CCCC)=NNC(=S)SC
Data returned: 24.7 µM (inactive)
